Molecular target: tooth pellicle (thin film derived from salivary glycoproteins, formed in a human mouth) (human)
Assay: ELISA, 20 uM biotinylated peptide on pellicle-coated bovine enamel, streptavidin-HRP, normalized to DenP03; no-peptide control -0.001
Where no end group is shown, it is not given here. The star is where a group is joined. Biotin = O=C1N[C@H]2[C@H](CS[C@H]2CCCCC(=O)*)N1
Endpoint: O.D.450 (normalized)

See these solved cases before continuing.
INSERT INTO assay_data (binder, endpoint, observed) VALUES
  ('SSRPTTYHYKNIYQESYQQRNPAVK(Biotin) [DenP3-A]', 'O.D.450 (normalized)', 1),
  ('SSRPTMTNHVYNSYTEKHSSTHRSK(Biotin) [DenP2-A]', 'O.D.450 (normalized)', 0.273),
  ('SSRPAPPTYQTASYPHNLPSKRKMK(Biotin) [DenP28-A]', 'O.D.450 (normalized)', 0.811),
  ('SSRPIYPNESMSTSNVRGPYHPK(Biotin) [DenP22-A]', 'O.D.450 (normalized)', 0.354);

A. SSRPQVPDYLSPTHQKKAFLEIPTK(Biotin) [DenP29-A]
B. SSRPSEARARTFNDHTTPMPIIK(Biotin) [DenP14-A]
Identify the item whose O.D.450 (normalized) is the smaller number: A or B Write the label of whichever entry you select. B
(B: 0.269, A: 0.468)

Data origin: patent US20100247589A1
